Molecular target: HIF-PH2 (EGLN1) (Homo sapiens)
Construct: made in house; host or cells: insect Hi5 cells
Sequence (Q9GZT9 whole entry): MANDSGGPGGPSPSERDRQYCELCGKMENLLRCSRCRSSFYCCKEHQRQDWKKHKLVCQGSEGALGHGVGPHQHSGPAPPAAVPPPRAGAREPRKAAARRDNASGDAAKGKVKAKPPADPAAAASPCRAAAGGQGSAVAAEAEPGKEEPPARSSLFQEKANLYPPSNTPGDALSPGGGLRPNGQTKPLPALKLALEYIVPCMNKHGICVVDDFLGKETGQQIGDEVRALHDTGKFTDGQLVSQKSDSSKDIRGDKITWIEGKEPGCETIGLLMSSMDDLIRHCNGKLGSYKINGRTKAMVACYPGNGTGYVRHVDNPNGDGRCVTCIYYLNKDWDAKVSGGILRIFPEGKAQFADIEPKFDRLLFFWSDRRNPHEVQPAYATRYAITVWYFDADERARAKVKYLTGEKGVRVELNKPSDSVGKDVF
Test: HIF-PH assay (14CO2 capture, peptide-dependent turnover)
Assay type: biochemical
Conditions: compound concentration 12.5 μM
value.type: inhibition at 12.5 µM (%)

COc1ccc(-c2ccc3c(O)c(C(=O)NCC(=O)O)c(=O)sc3c2)cc1: 98.7
Cc1ccc2c(O)c(C(=O)NCC(=O)O)c(=O)sc2c1: 94.5
CCCCOc1ccc2c(O)c(C(=O)NCC(=O)O)c(=O)sc2c1: 96.2
O=C(O)CNC(=O)c1c(O)c2ccc(Br)cc2sc1=O: 97.6
O=C(O)CNC(=O)c1c(O)c2ccc(F)cc2sc1=O: 91.1

----------
Target: HIF-PH2 (EGLN1) (Homo sapiens)
Construct: made in house; host or cells: insect Hi5 cells
Test: HIF-PH assay (14CO2 capture, peptide-dependent turnover)
Assay type: biochemical
Details: compound concentration 50 μM
Structures can show the parent of a compound that is named as a salt.
value.type: inhibition at 50 µM (%)

C[C@H](NC(=O)c1c(O)c2ccc(Cl)cc2sc1=O)C(=O)O: 100
O=C(O)CNC(=O)c1c(O)c2cc(-c3ccc(OC(F)(F)F)cc3)ccc2sc1=O: 94.8
O=C(O)CNC(=O)c1c(O)c2cc(OCC3CCCCC3)ccc2sc1=O: 98.9
Cc1cccc2c(O)c(C(=O)NCC(=O)O)c(=O)sc12: 97.5
O=C(O)CNC(=O)c1c(O)c2cc(Cl)cc(-c3cc(C(F)(F)F)cc(C(F)(F)F)c3)c2sc1=O: 100
O=C(O)CNC(=O)c1c(O)c2ccc(-c3cccnc3)cc2sc1=O [Example 15, sodium salt]: 95.2
O=C(O)CNC(=O)c1c(O)c2ccc(Cl)cc2sc1=O: 96.5
Cc1ccc(-c2ccc3c(O)c(C(=O)NCC(=O)O)c(=O)sc3c2)cc1: 92.1
O=C(O)CNC(=O)c1c(O)c2cc(Cl)cc(-c3ccccc3)c2sc1=O: 100
Cn1nc(C(F)(F)F)cc1-c1cc(Cl)cc2c(O)c(C(=O)NCC(=O)O)c(=O)sc12: 100
